Below: a set of entries, each annotated with reported pIC50.
test system: Akt phosphorylated at Ser473 in PC-3 cells; test: Cellular assay: phosphorylation of Akt at Ser473 in PC-3 cells (MSD ELISA); format: cell-based; conditions: PC-3 cells, 60 min compound incubation, MSD ELISA; read-out: IC50 pAkt_S473
pIC50: −log10 of the molar value.
measured_endpoint: pIC50

>  <compound>
CC(C)NCCNC(=O)c1cc(C(C)Oc2cccc(F)c2)c2nc(N3CCOCC3)cnc2c1 (single isomer, unassigned) [Compound 314b]

>  <reported_relation>
=

>  <data_value>
6.72

$$$$
>  <compound>
CC(Nc1cc(F)cc(F)c1)c1cc(CNCC(F)(F)F)cc2ncc(N3CCOCC3)nc12 (single isomer, unassigned) [Compound 163]

>  <reported_relation>
<

>  <data_value>
6.29

$$$$
>  <compound>
C[C@@H](Nc1cc(F)cc(F)c1)c1cc(C(=O)NCCN(C)C)cc2ncc(N3CCOCC3)nc12 [Compound 184c]

>  <reported_relation>
=

>  <data_value>
8.40

$$$$

---

target: PI3Kβ (Homo sapiens, UniProt P42338); construct: purchased DiscoveRx Corporation, San Diego (contract service, KINOMEscan); assay: Enzyme binding assay (KINOMEscan, DiscoveRx); conditions: PIK3Cβ_h, read-out: Kd PIK3Cβ_h
Sequence (P42338 whole entry): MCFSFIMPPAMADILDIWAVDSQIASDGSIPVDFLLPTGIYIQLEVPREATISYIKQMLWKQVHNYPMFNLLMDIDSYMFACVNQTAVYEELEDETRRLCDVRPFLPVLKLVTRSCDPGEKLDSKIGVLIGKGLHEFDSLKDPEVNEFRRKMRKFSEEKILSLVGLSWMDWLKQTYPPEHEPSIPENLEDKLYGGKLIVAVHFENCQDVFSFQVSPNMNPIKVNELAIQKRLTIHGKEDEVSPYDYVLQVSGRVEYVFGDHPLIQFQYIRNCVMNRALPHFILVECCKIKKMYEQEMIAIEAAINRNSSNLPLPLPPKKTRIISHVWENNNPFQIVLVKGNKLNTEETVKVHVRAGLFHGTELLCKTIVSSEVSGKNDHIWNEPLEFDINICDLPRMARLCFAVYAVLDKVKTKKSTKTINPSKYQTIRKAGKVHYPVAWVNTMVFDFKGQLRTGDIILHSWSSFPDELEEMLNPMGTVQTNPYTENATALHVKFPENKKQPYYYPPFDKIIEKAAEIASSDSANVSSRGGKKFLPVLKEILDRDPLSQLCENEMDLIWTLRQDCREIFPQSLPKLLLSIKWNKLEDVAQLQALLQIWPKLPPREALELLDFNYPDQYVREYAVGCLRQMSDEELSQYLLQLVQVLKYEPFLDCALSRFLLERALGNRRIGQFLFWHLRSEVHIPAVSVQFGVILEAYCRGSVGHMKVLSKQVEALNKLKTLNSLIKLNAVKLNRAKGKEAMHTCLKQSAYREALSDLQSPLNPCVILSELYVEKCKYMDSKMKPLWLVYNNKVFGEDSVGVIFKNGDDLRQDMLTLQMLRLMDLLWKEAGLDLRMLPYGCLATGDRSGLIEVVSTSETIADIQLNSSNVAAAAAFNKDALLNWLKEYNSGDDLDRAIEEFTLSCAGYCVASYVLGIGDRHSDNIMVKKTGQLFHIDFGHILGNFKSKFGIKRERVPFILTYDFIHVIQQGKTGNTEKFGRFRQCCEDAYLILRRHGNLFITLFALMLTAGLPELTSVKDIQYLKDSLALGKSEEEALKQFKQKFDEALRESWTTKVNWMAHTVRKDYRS
pKd: −log10 of the molar value.
Decide by pKd: equal to or exceeding 9 means true (1), less means false (0).

>  <compound>
OC(CN1CCC1)c1cc(C2CCCN2c2cc(F)cc(F)c2)c2nc(N3CCOCC3)cnc2c1 (single isomer, unassigned) [Compound 94]

>  <label_class>
true (1)

$$$$
>  <compound>
Cc1c(F)cccc1CN(C)c1cc(C(=O)N2CCNC(C(F)(F)F)C2)cc2ncc(N3CCOCC3)nc12 (single isomer, unassigned) [Compound 367b]

>  <label_class>
false (0)

$$$$
>  <compound>
CC(C)NCCNC(=O)c1cc(C(C)Oc2cccc(F)c2)c2nc(N3CCOCC3)cnc2c1 (single isomer, unassigned) [Compound 314b]

>  <label_class>
false (0)

$$$$
>  <compound>
CC(Nc1cccc(F)c1)c1cc(C(=O)N2CCC[C@H](O)C2)cc2ncc(N3CCOCC3)nc12 (single isomer, unassigned) [Compound 320a]

>  <label_class>
false (0)

$$$$
>  <compound>
CNCCNC(=O)c1cc(C(C)Nc2cc(F)ccc2F)c2nc(N3CCOCC3)cnc2c1 (stereo not drawn)

>  <label_class>
true (1)

$$$$

---

Target: PI3Kδ (Homo sapiens)
Sequence (O00329 1-1044): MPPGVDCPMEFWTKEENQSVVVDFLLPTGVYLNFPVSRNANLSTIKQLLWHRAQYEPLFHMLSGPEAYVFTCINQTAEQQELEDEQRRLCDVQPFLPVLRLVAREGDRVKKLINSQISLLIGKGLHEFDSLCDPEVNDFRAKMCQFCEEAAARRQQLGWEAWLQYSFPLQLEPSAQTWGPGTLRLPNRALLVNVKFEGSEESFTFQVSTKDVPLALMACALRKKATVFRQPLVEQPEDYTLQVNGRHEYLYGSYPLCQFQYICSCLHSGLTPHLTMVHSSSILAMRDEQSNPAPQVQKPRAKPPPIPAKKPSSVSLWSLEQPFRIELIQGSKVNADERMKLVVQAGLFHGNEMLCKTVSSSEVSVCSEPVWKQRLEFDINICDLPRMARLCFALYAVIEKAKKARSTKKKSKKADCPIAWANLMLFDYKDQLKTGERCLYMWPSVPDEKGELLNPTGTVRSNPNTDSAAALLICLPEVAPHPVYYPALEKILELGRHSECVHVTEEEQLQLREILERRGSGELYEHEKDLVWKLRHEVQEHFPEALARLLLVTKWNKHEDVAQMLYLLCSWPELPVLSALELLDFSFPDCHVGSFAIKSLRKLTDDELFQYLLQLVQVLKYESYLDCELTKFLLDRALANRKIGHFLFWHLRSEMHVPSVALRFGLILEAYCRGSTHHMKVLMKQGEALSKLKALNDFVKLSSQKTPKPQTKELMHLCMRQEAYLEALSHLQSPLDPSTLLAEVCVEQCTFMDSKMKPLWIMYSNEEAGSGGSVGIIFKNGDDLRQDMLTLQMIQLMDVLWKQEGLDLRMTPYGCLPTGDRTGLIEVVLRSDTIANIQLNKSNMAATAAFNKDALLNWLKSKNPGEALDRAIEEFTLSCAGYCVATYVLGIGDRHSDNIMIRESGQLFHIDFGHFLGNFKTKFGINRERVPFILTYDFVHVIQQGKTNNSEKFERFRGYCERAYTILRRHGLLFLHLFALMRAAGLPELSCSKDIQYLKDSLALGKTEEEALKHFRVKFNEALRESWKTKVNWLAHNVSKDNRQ
pKd: −log10 of the molar value.

>  <molecule>
CC(Oc1cc(F)cc(F)c1)c1cc(C(=O)N(C)C)cc2ncc(N3CCOCC3)nc12 (stereo not drawn)

>  <reported_relation>
=

>  <pKd>
6.16

$$$$
>  <molecule>
Cc1c(F)cccc1CN(C)c1cc(C(=O)N2CCNC(C(F)(F)F)C2)cc2ncc(N3CCOCC3)nc12 (single isomer, unassigned) [Compound 367a]

>  <reported_relation>
=

>  <pKd>
5.94

$$$$
>  <molecule>
CC(Nc1cc(F)cc(F)c1)c1cc(CN2CCO[C@H](CO)C2)cc2ncc(N3CCOCC3)nc12 (single isomer, unassigned) [Compound 194]

>  <reported_relation>
<

>  <pKd>
4.52

$$$$

---

Below: a set of entries, each annotated with reported Kd.
target: kinase enzymes (Homo sapiens)
Sequence (P42336 whole entry): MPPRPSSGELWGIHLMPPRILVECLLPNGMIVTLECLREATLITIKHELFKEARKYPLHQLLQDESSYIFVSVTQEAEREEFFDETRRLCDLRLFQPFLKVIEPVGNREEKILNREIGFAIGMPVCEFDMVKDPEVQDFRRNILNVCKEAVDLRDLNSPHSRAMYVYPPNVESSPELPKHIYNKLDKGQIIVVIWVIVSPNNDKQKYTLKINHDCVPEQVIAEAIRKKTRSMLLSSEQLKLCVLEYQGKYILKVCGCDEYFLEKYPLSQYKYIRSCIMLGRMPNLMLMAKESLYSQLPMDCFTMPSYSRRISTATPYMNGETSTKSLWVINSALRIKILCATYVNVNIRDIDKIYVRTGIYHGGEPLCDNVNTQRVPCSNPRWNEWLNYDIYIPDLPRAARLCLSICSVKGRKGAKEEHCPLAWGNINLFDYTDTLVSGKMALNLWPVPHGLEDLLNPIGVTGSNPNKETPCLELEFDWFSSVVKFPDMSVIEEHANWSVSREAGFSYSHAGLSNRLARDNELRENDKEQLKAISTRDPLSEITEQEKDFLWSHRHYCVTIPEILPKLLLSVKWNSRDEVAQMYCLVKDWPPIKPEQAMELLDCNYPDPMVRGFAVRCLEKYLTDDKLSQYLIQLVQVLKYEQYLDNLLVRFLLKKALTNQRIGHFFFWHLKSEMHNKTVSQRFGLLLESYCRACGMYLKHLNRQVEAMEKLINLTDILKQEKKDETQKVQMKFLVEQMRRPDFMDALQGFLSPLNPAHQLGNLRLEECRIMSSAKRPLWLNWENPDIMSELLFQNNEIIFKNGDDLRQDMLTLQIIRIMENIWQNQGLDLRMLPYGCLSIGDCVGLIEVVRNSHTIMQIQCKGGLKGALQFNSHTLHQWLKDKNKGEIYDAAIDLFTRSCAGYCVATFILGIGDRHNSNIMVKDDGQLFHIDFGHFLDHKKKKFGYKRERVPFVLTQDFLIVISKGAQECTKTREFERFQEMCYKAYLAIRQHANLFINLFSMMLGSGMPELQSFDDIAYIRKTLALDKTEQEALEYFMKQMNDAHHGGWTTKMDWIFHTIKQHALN

>  <compound>
CC(Nc1cc(F)cc(F)c1)c1cc(CNCC(F)(F)F)cc2ncc(N3CCOCC3)nc12 (single isomer, unassigned)

>  <Kd>
> 30.2 µM

$$$$
>  <compound>
CC(Nc1cc(F)cc(F)c1)c1cc(C(=O)N2CCNC(C(F)(F)F)C2)cc2ncc(N3CCOCC3)nc12 (single isomer, unassigned) [Compound 237d]

>  <Kd>
12.6 µM

$$$$
>  <compound>
CC(Nc1cc(F)c(F)c(F)c1)c1cc(C(=O)N(C)C2CCNC2)cc2ncc(N3CCOCC3)nc12 (single isomer, unassigned) [Compound 296b]

>  <Kd>
> 30.2 µM

$$$$

---

Below: a set of entries, each annotated with reported pIC50.
tested on: Akt phosphorylated at Ser473 in PC-3 cells; assay: Cellular assay: phosphorylation of Akt at Ser473 in PC-3 cells (MSD ELISA); assay type: cell-based; details: PC-3 cells, 60 min compound incubation, MSD ELISA; read-out: IC50 pAkt_S473
pIC50: −log10 of the molar value.
measured_endpoint: pIC50

>  <compound>
Cc1c(F)cccc1CN(C)c1cc(C(=O)N2CCNC(C(F)(F)F)C2)cc2ncc(N3CCOCC3)nc12 (single isomer, unassigned) [Compound 367b]

>  <reported_relation>
<

>  <data_value>
6.29

$$$$
>  <compound>
O=C(c1cc(C2CCCN2c2cc(F)cc(F)c2)c2nc(N3CCOCC3)cnc2c1)N1CCC1 (single isomer, unassigned) [Compound 33]

>  <reported_relation>
=

>  <data_value>
8.52

$$$$
>  <compound>
CC(Nc1ccc(F)c(F)c1)c1cc(C(=O)N2CCN3CCC[C@@H]3C2)cc2ncc(N3CCOCC3)nc12 (stereo partly drawn) [Compound 347]

>  <reported_relation>
=

>  <data_value>
6.66

$$$$

---

system: Akt phosphorylated at Ser473 in PC-3 cells; assay: Cellular assay: phosphorylation of Akt at Ser473 in PC-3 cells (MSD ELISA); type: cell-based; conditions: PC-3 cells, 60 min compound incubation, MSD ELISA; read-out: IC50 pAkt_S473
Below: a set of entries, each annotated with reported IC50.

>  <compound>
CC(Oc1cc(F)cc(F)c1)c1cc(-c2cnc[nH]2)cc2ncc(N3CCOCC3)nc12 (single isomer, unassigned)

>  <assay_target>
Akt phosphorylated at Ser473 in PC-3 cells

>  <IC50>
> 0.513 µM

$$$$
>  <compound>
Fc1cc(F)cc(N2CCCC2c2cncc3ncc(N4CCOCC4)nc23)c1 (single isomer, unassigned) [Compound 25]

>  <assay_target>
Akt phosphorylated at Ser473 in PC-3 cells

>  <IC50>
> 0.513 µM

$$$$
>  <compound>
CC(Nc1ccc(F)c(F)c1)c1cc(C(=O)NCCO)cc2ncc(N3CCOCC3)nc12 (single isomer, unassigned) [Compound 279b]

>  <assay_target>
Akt phosphorylated at Ser473 in PC-3 cells

>  <IC50>
0.059 µM

$$$$
>  <compound>
CNCCNC(=O)c1cc(C(C)Oc2cc(F)cc(F)c2)c2nc(N3CCOCC3)cnc2c1 (single isomer, unassigned) [Compound 166]

>  <assay_target>
Akt phosphorylated at Ser473 in PC-3 cells

>  <IC50>
> 0.513 µM

$$$$
>  <compound>
CC(C)NCCNC(=O)c1cc(C(C)Oc2cccc(F)c2)c2nc(N3CCOCC3)cnc2c1 (single isomer, unassigned) [Compound 314a]

>  <assay_target>
Akt phosphorylated at Ser473 in PC-3 cells

>  <IC50>
~0.407 µM

$$$$

Attribution: patent US10526316B2
